# System: P. falciparum 3D7 gametocytes
# PROCEDURE SUMMARY: alamarBlue gametocyte viability assay, strain 3D7
# Assay type: cell-based, Plasmodium falciparum
# RECORDED CONDITIONS: Malaria Box; DMSO set at 0%, 100 nM epoxomicin set at -100%
For each record, check the reported Max Resp: if it is below -60% write T, else write F.

Consider the worked cases shown below.
Cc1cc(NC(=O)c2cccc(C(F)(F)F)c2)n(-c2nc(-c3ccc4c(c3)OCO4)cs2)n1 [MMV396681] :: F
COc1ccc(Nc2nc(N/N=C/c3ccc(O)cc3)nc(Nc3ccc([N+](=O)[O-])cc3)n2)cc1 [MMV666689] :: T

Would you kindly verify if Max Resp of O=C(Nc1nc(-c2ccccn2)cs1)c1ccccc1Br [MMV665909] is strictly less than -60%? T

Would you kindly verify if Max Resp of CCOC(=O)c1cnc2ccc(OC)cc2c1Nc1ccc(N2CCN(C)CC2)cc1 [MMV000704] is strictly less than -60%? T

Would you kindly verify if Max Resp of CC(C)c1ccc(CNCC(O)c2ccccc2)cc1.Cl (stereo not shown) [MMV001049] is strictly less than -60%? T

Would you kindly verify if Max Resp of Cc1cccc(Nc2nc(N)c3ccccc3n2)c1.Cl [MMV019110] is strictly less than -60%? T

Would you kindly verify if Max Resp of CCCN(CCC)CCCNC(=O)c1cc2c(-c3ccc(OC)c(OC)c3)nn(C)c2s1 [MMV000561] is strictly less than -60%? F

Would you kindly verify if Max Resp of CCOc1cccc(C(=O)Nc2ccc(-c3nc4ccccc4[nH]3)cc2)c1 [MMV019202] is strictly less than -60%? F

Would you kindly verify if Max Resp of O=C(Nc1ccccc1O)c1ccc(Oc2cccc(C(=O)Nc3ccccc3O)c2)cc1 [MMV665888] is strictly less than -60%? T

Would you kindly verify if Max Resp of O=C(NCc1ccco1)C1CCN(S(=O)(=O)c2ccc(Cl)cc2)CC1 [MMV006188] is strictly less than -60%? F

Would you kindly verify if Max Resp of CCC(O)c1ccc(Br)cc1NC(=O)c1cccc(Cl)c1 (stereo not shown) [MMV020654] is strictly less than -60%? F
